The values you see were collected from patent US8101663B2.

assay: Serum plasma levels of SAHA after IV and oral dosing (HPLC assay, LCMS using a deuterated standard); type: in vivo, humans; conditions: human, iv, 200 mg, Patient #1, IV, 200 mg infused over two hours
parameterMeasured: Cmax (ng/mL)
Report as a plain number; the unit ng/mL is understood.

Task: What value of Cmax has been reported for the following molecule? O=C(CCCCCCC(=O)Nc1ccccc1)NO [SAHA, suberoylanilide hydroxamic acid]
Result: 1330

====

test: Interim pharmacokinetic analysis of oral SAHA, dose escalation study; assay type: in vivo, patients; conditions: human, plasma; oral, across dose groups 200 mg QD, 400 mg QD, 400 mg BID; fasting or with food; 18 patients; read-out: Mean estimates for apparent half-life
parameterMeasured: half-life

Task: Given the entry O=C(CCCCCCC(=O)Nc1ccccc1)NO [SAHA, suberoylanilide hydroxamic acid] , report its measured half-life.
Result: 1.02 to 1.9 h
